Species on record: Mus musculus
Method: Ratio of average survival time of treated to control mice bearing sarcoma 180 ascites cells
Format: functional
Please mark YES if the recorded T/C is equal to or greater than 200%, and NO if it falls below.

INSERT INTO results (chemical_smiles, class_assignment) VALUES
  ('COc1ccc(S(=O)(=O)N/N=C/c2ccncc2)cc1.Cl', 'YES'),
  ('Cc1cc(C)c(S(=O)(=O)N/N=C/c2ccncc2)c(C)c1.Cl', 'YES'),
  ('COc1ccc(S(=O)(=O)N/N=C/c2ccncc2)cc1OC.Cl', 'YES'),
  ('CC(=O)Nc1ccc(S(=O)(=O)N/N=C/c2ccncc2)cc1.Cl', 'YES'),
  ('C/C(=N\NS(=O)(=O)c1c(C)cc(C)cc1C)c1ccncc1', 'NO'),
  ('Cl.O=S(=O)(N/N=C/c1ccncc1)c1ccc(Cl)cc1', 'YES');
